These data points were gathered from the supplement of paper PMC10065799.

test system: c-Abl (mouse); test: phosphorylation enrichment, bacterial display (enrichment ratio); higher = better substrate or ligand; peptides without Tyr show the background;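 further: 11-residue human phosphosite peptides and single-mutation variants displayed on the E. coli surface, counted by deep sequencing, each peptide's frequency after selection divided by its frequency in the unselected input library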;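 further: frequency after pTyr selection over input frequency; kinase dosed for 20-30% of maximal phosphorylation in three min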
measurementKind: phosphorylation enrichment
// return a plain number; no unit text

Prompt: What measured phosphorylation enrichment goes with NGSKGYAFVHF [PABPC5_Y147_YF] ?
Response: 0.755

Prompt: What measured phosphorylation enrichment goes with KTSGNYLPVTG [WDR19_Y28_A30P] ?
Response: 0.446

Prompt: What measured phosphorylation enrichment goes with NFATLYLKIYH [PDE6B_Y219] ?
Response: 0.827

Prompt: What measured phosphorylation enrichment goes with TGEKLYQHKEF [ZNF283_Y627_R629H] ?
Response: 0.665

Prompt: What measured phosphorylation enrichment goes with SHMVNYQPFRK [TEX37_Y25_D24N_YF] ?
Response: 0.504

Prompt: What measured phosphorylation enrichment goes with DPLLTYQFPPK [LMNA_Y481_R482Q] ?
Response: 0.549

Prompt: What measured phosphorylation enrichment goes with LVMFIYAIFGM [SCN1A_Y1684] ?
Response: 1.55

Prompt: What measured phosphorylation enrichment goes with GFAIVYGTIIL [GPR179_Y460] ?
Response: 1.31

Prompt: What measured phosphorylation enrichment goes with GPQSLYNGLVA [UCP2_Y79_R76Q] ?
Response: 0.628

Prompt: What measured phosphorylation enrichment goes with FKDGQYWIRGW [ACSF3_Y466_R471W] ?
Response: 0.636

Prompt: What measured phosphorylation enrichment goes with SGGSSYGSGGG [KRT1_Y532] ?
Response: 0.633

Prompt: What measured phosphorylation enrichment goes with LGLDEYLDKLK [FMNL2_Y352] ?
Response: 0.982

Prompt: What measured phosphorylation enrichment goes with WNGDKYAATTT [TRIM39_Y439] ?
Response: 0.513

Prompt: What measured phosphorylation enrichment goes with ACEVLYNIAFM [NCF2_Y125] ?
Response: 2.57

====

Give measured phosphorylation enrichment for each item. Keep answers brief.
test system: c-Abl (mouse); experiment: phosphorylation enrichment, bacterial display (enrichment ratio); higher = better substrate or ligand; peptides without Tyr show the background

Prompt: What measured phosphorylation enrichment goes with ASTDYYKRGDF [PDHA1_Y243] ?
Response: 0.559

Prompt: What measured phosphorylation enrichment goes with AQMAMYFWEMS [TRPM4_Y577_G582S] ?
Response: 1.14

Prompt: What measured phosphorylation enrichment goes with REVPVYISEDS [SYNM_Y460_G462S] ?
Response: 2.66

Prompt: What measured phosphorylation enrichment goes with LRNIDYFRLDG [ATRX_Y2083_YF] ?
Response: 5.39

Prompt: What measured phosphorylation enrichment goes with LRVGFYESDVM [A2M_Y708] ?
Response: 1.9

Prompt: What measured phosphorylation enrichment goes with DRLASDLDKVR [KRT10_Y160_Y160D] ?
Response: 0.443

Prompt: What measured phosphorylation enrichment goes with TSFQMYDKGLV [IARS2_Y231_F227S_YF] ?
Response: 0.473

====

test system: Fer (mouse); experiment: phosphorylation enrichment, bacterial display (enrichment ratio); higher = better substrate or ligand; peptides without Tyr show the background
Threshold check on phosphorylation enrichment: at or above 0.6 gives rule met, strictly below gives rule not met.

Prompt: Is phosphorylation enrichment at least 0.6? Consider LQTYRYHGLSM [PDHA1_Y289_H292L]
Response: rule not met

Prompt: Is phosphorylation enrichment at least 0.6? Consider HDRNTYEKYLE [TF_Y666_G671E]
Response: rule met

Prompt: Is phosphorylation enrichment at least 0.6? Consider DVCKKYAEAKD [ALB_Y343_N342K]
Response: rule not met

Prompt: Is phosphorylation enrichment at least 0.6? Consider QGQHWYSSSDT [CASP10_Y9_K14T]
Response: rule met

Prompt: Is phosphorylation enrichment at least 0.6? Consider NGRTGYVLQPE [PLCG2_Y1036]
Response: rule not met

Prompt: Is phosphorylation enrichment at least 0.6? Consider DPHQQYFIAMD [TBX15_Y159_YF]
Response: rule not met

Prompt: Is phosphorylation enrichment at least 0.6? Consider IGEVVYQWAVM [GRIN2A_Y502_R504W]
Response: rule met

Prompt: Is phosphorylation enrichment at least 0.6? Consider KMKGDYFRFLA [YWHAG_Y130_YF]
Response: rule not met

Prompt: Is phosphorylation enrichment at least 0.6? Consider "ENAGFYFRVSA"
Response: rule met

Prompt: Is phosphorylation enrichment at least 0.6? Consider WNEVGYDDIGG [VCP_Y203_L198W]
Response: rule not met

Prompt: Is phosphorylation enrichment at least 0.6? Consider ATHSRYRLNDF [CLDN14_Y233_G232R_YF]
Response: rule not met

Prompt: Is phosphorylation enrichment at least 0.6? Consider LHAALYKRKLL [TTLL5_Y542_E543K]
Response: rule not met

Prompt: Is phosphorylation enrichment at least 0.6? Consider LKLWDYSRGRC [WDR5B_Y239]
Response: rule met

====

Give measured phosphorylation enrichment for each item. Keep answers brief.
biological target: FGFR3 (UniProt P22607); assay: phosphorylation enrichment, bacterial display (enrichment ratio); higher = better substrate or ligand; peptides without Tyr show the background
Sequence (P22607 whole entry, looked up): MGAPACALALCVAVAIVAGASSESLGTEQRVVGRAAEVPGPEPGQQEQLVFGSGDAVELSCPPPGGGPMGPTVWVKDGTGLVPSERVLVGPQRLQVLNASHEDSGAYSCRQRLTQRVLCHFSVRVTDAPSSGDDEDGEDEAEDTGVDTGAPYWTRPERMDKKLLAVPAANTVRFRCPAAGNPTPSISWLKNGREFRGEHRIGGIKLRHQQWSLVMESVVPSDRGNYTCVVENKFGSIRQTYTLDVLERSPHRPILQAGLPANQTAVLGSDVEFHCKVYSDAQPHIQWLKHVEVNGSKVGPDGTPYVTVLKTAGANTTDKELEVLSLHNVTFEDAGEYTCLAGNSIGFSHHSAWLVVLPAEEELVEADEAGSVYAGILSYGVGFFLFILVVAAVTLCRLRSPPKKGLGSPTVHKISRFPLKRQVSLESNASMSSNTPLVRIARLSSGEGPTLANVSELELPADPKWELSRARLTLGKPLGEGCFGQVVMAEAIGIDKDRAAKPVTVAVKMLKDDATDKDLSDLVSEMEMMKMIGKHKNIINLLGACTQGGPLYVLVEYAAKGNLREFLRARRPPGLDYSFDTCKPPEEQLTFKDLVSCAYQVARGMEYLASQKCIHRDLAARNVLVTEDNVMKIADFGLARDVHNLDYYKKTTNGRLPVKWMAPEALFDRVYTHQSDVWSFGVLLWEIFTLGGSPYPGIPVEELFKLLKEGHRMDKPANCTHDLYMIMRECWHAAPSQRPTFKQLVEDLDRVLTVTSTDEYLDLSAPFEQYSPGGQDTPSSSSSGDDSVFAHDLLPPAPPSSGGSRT
// return a plain number; no unit text

Prompt: What measured phosphorylation enrichment goes with NDKLRYEVSSP [CDH13_Y66] ?
Response: 0.615

Prompt: What measured phosphorylation enrichment goes with DYLEKYYKFGC [NNMT_Y24_S29C] ?
Response: 1.14

Prompt: What measured phosphorylation enrichment goes with PVQAAYRKVVA [HBB_Y131_Q132R] ?
Response: 0.373

Prompt: What measured phosphorylation enrichment goes with RHRSGYVLIAM [EFR3A_Y73] ?
Response: 0.773

Prompt: What measured phosphorylation enrichment goes with TFVKSYTIHFS [F5_Y2153_M2148T_YF] ?
Response: 0.899

Prompt: What measured phosphorylation enrichment goes with TGDVQYRSSVR [FREM2_Y2158] ?
Response: 0.397

Prompt: What measured phosphorylation enrichment goes with VAMELYVFGGV [GAN_Y471] ?
Response: 0.781

Prompt: What measured phosphorylation enrichment goes with LVMFIYDIFGM [SCN1A_Y1684_A1685D] ?
Response: 1.9

Prompt: What measured phosphorylation enrichment goes with MFNPCYGLFEY [NEDD4L_Y680_Y679C] ?
Response: 0.752

Prompt: What measured phosphorylation enrichment goes with "ENAGYYFRISA" ?
Response: 0.852

Prompt: What measured phosphorylation enrichment goes with NFATLYLKIFH [PDE6B_Y219_YF] ?
Response: 0.734

Prompt: What measured phosphorylation enrichment goes with GSIQQYTYKQE [PRG4_Y1271_I1272T] ?
Response: 0.559

Prompt: What measured phosphorylation enrichment goes with DGLASYLDKVR [KRT12_Y139_R135G] ?
Response: 0.51

Prompt: What measured phosphorylation enrichment goes with MSSLPYMKVIF [SLC4A11_Y853_M856V] ?
Response: 0.592

Prompt: What measured phosphorylation enrichment goes with LVSCTYQLATG [FGFR2_Y608_R612T] ?
Response: 0.764

Prompt: What measured phosphorylation enrichment goes with RSFSPCDFQPC [TNS1_Y796_Y796C_YF] ?
Response: 0.822

Prompt: What measured phosphorylation enrichment goes with RDLTHYLMKIL [ACTG1_Y188_D187H] ?
Response: 0.85

Prompt: What measured phosphorylation enrichment goes with PTTKTYFPHFH [HBA1_Y43_D48H] ?
Response: 0.559

Prompt: What measured phosphorylation enrichment goes with AKKVFYVIETR [SHH_Y253] ?
Response: 0.765

Prompt: What measured phosphorylation enrichment goes with QTLEAYIRCNK [SPAST_Y604_W607C] ?
Response: 1.1

Prompt: What measured phosphorylation enrichment goes with NSFKFYMSDDI [ATRX_Y204_C200S_YF] ?
Response: 0.693

Prompt: What measured phosphorylation enrichment goes with EALDFYGEVKT [PTEN_Y155_R159K] ?
Response: 0.823

Prompt: What measured phosphorylation enrichment goes with GSQERYFELVE [TSC2_Y407] ?
Response: 0.826

Prompt: What measured phosphorylation enrichment goes with GFKVRYATWSI [FGFR1_Y210_YF] ?
Response: 0.795

Prompt: What measured phosphorylation enrichment goes with KLNNEYLELNF [MME_Y497_YF] ?
Response: 3.38

Prompt: What measured phosphorylation enrichment goes with SVTGTYSPALN [TP53_Y126_C124G] ?
Response: 0.593

Prompt: What measured phosphorylation enrichment goes with TNIKRYHIAKG [HARS1_Y150_V155G] ?
Response: 0.356

Prompt: What measured phosphorylation enrichment goes with ISDNAYQYMLT [MYH7_Y162] ?
Response: 2.15

Prompt: What measured phosphorylation enrichment goes with TSNNPYFRDQA [RPGRIP1_Y846_A841T] ?
Response: 0.544

====

target: EPHB1 (UniProt P54762); assay: phosphorylation enrichment, bacterial display (enrichment ratio); higher = better substrate or ligand; peptides without Tyr show the background
Sequence (P54762 whole entry, looked up): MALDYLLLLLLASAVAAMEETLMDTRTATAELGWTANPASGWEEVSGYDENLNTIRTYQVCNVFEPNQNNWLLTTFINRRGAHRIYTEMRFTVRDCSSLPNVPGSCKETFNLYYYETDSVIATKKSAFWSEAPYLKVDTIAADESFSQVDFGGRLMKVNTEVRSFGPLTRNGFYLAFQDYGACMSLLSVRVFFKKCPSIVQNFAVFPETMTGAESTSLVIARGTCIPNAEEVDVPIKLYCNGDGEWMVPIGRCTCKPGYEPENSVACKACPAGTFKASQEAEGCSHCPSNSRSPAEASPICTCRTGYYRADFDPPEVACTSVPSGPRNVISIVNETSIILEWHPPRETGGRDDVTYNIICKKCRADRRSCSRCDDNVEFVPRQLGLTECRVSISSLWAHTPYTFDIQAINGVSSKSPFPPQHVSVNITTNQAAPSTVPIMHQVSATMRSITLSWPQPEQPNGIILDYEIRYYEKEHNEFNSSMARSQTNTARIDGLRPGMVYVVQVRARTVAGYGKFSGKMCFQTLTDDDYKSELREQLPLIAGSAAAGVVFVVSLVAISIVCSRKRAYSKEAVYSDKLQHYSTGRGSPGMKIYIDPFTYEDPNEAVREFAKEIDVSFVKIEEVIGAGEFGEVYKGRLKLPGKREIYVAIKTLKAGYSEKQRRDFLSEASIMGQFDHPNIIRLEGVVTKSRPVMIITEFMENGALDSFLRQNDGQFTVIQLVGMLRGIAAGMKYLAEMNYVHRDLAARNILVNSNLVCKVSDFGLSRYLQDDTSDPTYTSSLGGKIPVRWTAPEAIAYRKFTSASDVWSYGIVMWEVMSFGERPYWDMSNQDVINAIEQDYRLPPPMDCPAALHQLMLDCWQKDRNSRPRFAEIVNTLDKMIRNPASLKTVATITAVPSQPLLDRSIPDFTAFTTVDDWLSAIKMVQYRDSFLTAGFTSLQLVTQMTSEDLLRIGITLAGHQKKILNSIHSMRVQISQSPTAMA
Give measured phosphorylation enrichment for each item. Keep answers brief.
// return a plain number; no unit text

Prompt: What measured phosphorylation enrichment goes with LDAFIYDAALL [GRIN2A_Y730_V734L] ?
Response: 2.23

Prompt: What measured phosphorylation enrichment goes with RTLIRYAKLGN [BEST1_Y131_N133K] ?
Response: 0.854

Prompt: What measured phosphorylation enrichment goes with GESVSYLFSHV [PRPS1_Y311] ?
Response: 0.511

Prompt: What measured phosphorylation enrichment goes with IRYPPYTDWNQ [ALDH3B2_Y365_H361R] ?
Response: 0.428

Prompt: What measured phosphorylation enrichment goes with CPYNLYAAQLS [HGD_Y40_E42A] ?
Response: 4.48

Prompt: What measured phosphorylation enrichment goes with FNNPAYYVLEG [INPPL1_Y986] ?
Response: 0.851

Prompt: What measured phosphorylation enrichment goes with KVMANYMYKAG [MAML2_Y513] ?
Response: 0.505
